Overview of reported Activity across a group of molecules:
- System: MCF7
- Experiment: Cell cycle arrest in human MCF7 cells assessed as accumulation at G2/M phase after 48 hrs by flow cytometry (reference value: 13.26 +/- 2.98 %)
- Type: functional
Only the number, expressed in %, is required.

{"Molecule": "Clc1nc(Cl)c2ncn(CC3CSc4ccccc4O3)c2n1 (racemic)", "Test target": "MCF7", "Activity / %": 43.89}

Qu. Activity for Brc1ncnc2c1ncn2CC1CSc2ccccc2O1 (racemic) ?
Ans. 31.37

Qu. Find the recorded Activity belonging to Clc1ncnc2c1ncn2CC1CSc2ccccc2O1 (racemic) and report it.
Ans. 23.35

Qu. What does the data say about its Activity? Entry: Brc1ncnc2c1ncn2CC1COc2ccccc2O1 (racemic)
Ans. 36.71
